Biological target: Tyrosine-protein phosphatase non-receptor type 1 (Homo sapiens) (UniProt P18031)
Sequence (whole entry): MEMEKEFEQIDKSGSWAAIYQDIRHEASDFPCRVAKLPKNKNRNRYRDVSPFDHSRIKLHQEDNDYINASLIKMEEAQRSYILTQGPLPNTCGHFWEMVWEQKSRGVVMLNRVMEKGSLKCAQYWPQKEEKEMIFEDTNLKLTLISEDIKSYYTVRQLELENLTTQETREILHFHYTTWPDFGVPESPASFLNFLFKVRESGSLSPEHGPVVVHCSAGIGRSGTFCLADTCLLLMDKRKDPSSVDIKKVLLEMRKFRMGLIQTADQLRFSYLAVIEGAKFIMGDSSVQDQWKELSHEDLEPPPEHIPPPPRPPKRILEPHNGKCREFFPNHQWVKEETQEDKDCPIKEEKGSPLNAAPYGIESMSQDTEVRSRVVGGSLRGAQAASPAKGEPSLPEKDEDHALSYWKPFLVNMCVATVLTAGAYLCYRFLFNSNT
Assay: Inhibition of PTP1B at 100 uM
Activity calls are given as the source filed them. No cut-off for these calls is given here.

{"Structure": "COc1ccc(-c2c(C#N)c(N)c(C#N)c(SC)c2-c2ccc(F)cc2)c(OC)c1", "inhibition": "28.2%"}
{"Structure": "CSc1c(C)c(-c2ccc(Cl)cc2)c(C#N)c(N)c1C#N", "inhibition": "7.3%"}
{"Structure": "COc1ccc(-c2c(C)c(SC)c(C#N)c(N)c2C#N)cc1", "inhibition": "0%"}
{"Structure": "CSc1c(C#N)c(N)c(C#N)c(C)c1-c1ccc(C(F)(F)F)cc1", "inhibition": "58.5%"}
{"Structure": "COc1ccc(-c2c(C#N)c(N)c(C#N)c(SC)c2-c2ccccc2)cc1", "inhibition": "61.5%"}
{"Structure": "CSc1c(C)c(-c2ccccc2)c(C#N)c(N)c1C#N", "inhibition": "inactive"}
{"Structure": "Cc1c(-c2ccccc2)c(C#N)c(N)c(C#N)c1N1CCCCC1", "inhibition": "31.1%"}
{"Structure": "COc1ccc(-c2c(C)c(C#N)c(N)c(C#N)c2SC)c(OC)c1", "inhibition": "25.6%"}
{"Structure": "COc1ccc(-c2c(C)c(N3CCCCC3)c(C#N)c(N)c2C#N)cc1", "inhibition": "inactive"}
{"Structure": "CSc1c(C#N)c(N)c(C#N)c(C)c1-c1ccc(F)cc1", "inhibition": "3.6%"}
{"Structure": "CSc1c(C#N)c(N)c(C#N)c(-c2ccccc2)c1-c1ccccc1", "inhibition": "81.6%"}
{"Structure": "CSc1c(C#N)c(N)c(C#N)c(C)c1-c1ccccc1F", "inhibition": "40.2%"}
{"Structure": "COc1ccc(-c2c(C#N)c(N)c(C#N)c(SC)c2-c2ccc(OC)cc2)cc1", "inhibition": "76.9%"}
{"Structure": "Cc1c(-c2ccccc2)c(C#N)c(N)c(C#N)c1N1CCC(C)CC1", "inhibition": "inactive"}
{"Structure": "COc1ccc(-c2c(C#N)c(N)c(C#N)c(SC)c2-c2ccc(OC)c(OC)c2)cc1", "inhibition": "30.7%"}
{"Structure": "COc1ccc(-c2c(C#N)c(N)c(C#N)c(SC)c2-c2ccc(F)cc2)cc1", "inhibition": "48.8%"}
{"Structure": "COc1ccc(-c2c(C)c(C#N)c(N)c(C#N)c2SC)cc1OC", "inhibition": "0%"}

---

Tested on: Rattus norvegicus
Assay: Antihyperglycemic activity in Sprague-Dawley rat assessed as inhibition of streptozotocin-induced increase in blood glucose level at 100 mg/kg, po after 5 hrs
Format: functional
Design: scale not given: the % may be the effect or the level left

{"Structure": "COc1ccc(-c2c(C#N)c(N)c(C#N)c(SC)c2-c2ccc(OC)cc2)cc1", "Target system": "Rattus norvegicus", "Activity (%)": 17.5}
{"Structure": "CSc1c(C#N)c(N)c(C#N)c(-c2ccccc2)c1-c1ccccc1", "Target system": "Rattus norvegicus", "Activity (%)": 24.1}
{"Structure": "COc1ccc(-c2c(C#N)c(N)c(C#N)c(SC)c2-c2ccccc2)cc1", "Target system": "Rattus norvegicus", "Activity (%)": 26.5}
{"Structure": "CN(C)C(=N)NC(=N)N", "Target system": "Rattus norvegicus", "Activity (%)": 20.9}
{"Structure": "COc1ccc(-c2c(C#N)c(N)c(C#N)c(SC)c2-c2ccc(F)cc2)cc1", "Target system": "Rattus norvegicus", "Activity (%)": 22.1}

---

Target: Glucose-6-phosphatase catalytic subunit 1 (Homo sapiens)
Sequence (whole entry): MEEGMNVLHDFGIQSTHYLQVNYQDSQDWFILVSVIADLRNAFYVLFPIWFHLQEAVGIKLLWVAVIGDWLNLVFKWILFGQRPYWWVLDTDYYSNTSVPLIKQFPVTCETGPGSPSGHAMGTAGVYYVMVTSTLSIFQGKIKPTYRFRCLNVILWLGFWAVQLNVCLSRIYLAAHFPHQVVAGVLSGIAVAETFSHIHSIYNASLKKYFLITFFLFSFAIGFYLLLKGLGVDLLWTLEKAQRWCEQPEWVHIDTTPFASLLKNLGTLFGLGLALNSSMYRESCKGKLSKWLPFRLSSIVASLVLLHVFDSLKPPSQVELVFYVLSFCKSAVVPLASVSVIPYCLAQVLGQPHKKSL
Assay: Inhibition of glucose-6-phosphatase at 100 uM
Outcome: 1 for inhibition of at least 10%; -1 for anything lower.

{"Structure": "CSc1c(C)c(-c2ccccc2)c(C#N)c(N)c1C#N", "Class label": -1}
{"Structure": "Cc1c(-c2ccccc2)c(C#N)c(N)c(C#N)c1N1CCC(C)CC1", "Class label": 1}
{"Structure": "COc1ccc(-c2c(C#N)c(N)c(C#N)c(SC)c2-c2ccc(OC)cc2)cc1", "Class label": -1}
{"Structure": "CSc1c(C#N)c(N)c(C#N)c(C)c1-c1ccccc1F", "Class label": -1}
{"Structure": "COc1ccc(-c2c(C#N)c(N)c(C#N)c(SC)c2-c2ccc(F)cc2)c(OC)c1", "Class label": -1}
{"Structure": "COc1ccc(-c2c(C#N)c(N)c(C#N)c(SC)c2-c2ccc(F)cc2)cc1", "Class label": -1}
{"Structure": "CSc1c(C#N)c(N)c(C#N)c(C)c1-c1ccc(F)cc1", "Class label": 1}
{"Structure": "COc1ccc(-c2c(C)c(C#N)c(N)c(C#N)c2SC)c(OC)c1", "Class label": -1}
{"Structure": "CSc1c(C#N)c(N)c(C#N)c(-c2ccccc2)c1-c1ccccc1", "Class label": -1}
{"Structure": "Cc1c(-c2ccccc2)c(C#N)c(N)c(C#N)c1N1CCCCC1", "Class label": 1}
{"Structure": "CSc1c(C#N)c(N)c(C#N)c(Cc2ccccc2)c1-c1ccccc1", "Class label": 1}
{"Structure": "CSc1c(C)c(-c2ccc(Cl)cc2)c(C#N)c(N)c1C#N", "Class label": 1}
{"Structure": "COc1ccc(-c2c(C#N)c(N)c(C#N)c(SC)c2-c2ccccc2)cc1", "Class label": -1}
{"Structure": "CSc1c(C#N)c(N)c(C#N)c(C)c1-c1ccc(C(F)(F)F)cc1", "Class label": 1}
{"Structure": "COc1ccc(-c2c(C)c(N3CCCCC3)c(C#N)c(N)c2C#N)cc1", "Class label": 1}
{"Structure": "COc1ccc(-c2c(C)c(SC)c(C#N)c(N)c2C#N)cc1", "Class label": 1}
{"Structure": "COc1ccc(-c2c(C#N)c(N)c(C#N)c(SC)c2-c2ccc(OC)c(OC)c2)cc1", "Class label": -1}
{"Structure": "COc1ccc(-c2c(C)c(C#N)c(N)c(C#N)c2SC)cc1OC", "Class label": -1}

---

A collection of molecules and their measured inhibition
Tested on: Glycogen phosphorylase
Experiment: Inhibition of glycogen phosphorylase at 100 uM
Readout label: inhibition

{"Structure": "COc1ccc(-c2c(C)c(C#N)c(N)c(C#N)c2SC)cc1OC", "Readout label": "inhibition", "Readout value": "10%"}
{"Structure": "CSc1c(C#N)c(N)c(C#N)c(C)c1-c1ccc(F)cc1", "Readout label": "inhibition", "Readout value": "5%"}
{"Structure": "COc1ccc(-c2c(C)c(N3CCCCC3)c(C#N)c(N)c2C#N)cc1", "Readout label": "inhibition", "Readout value": "15.7%"}
{"Structure": "COc1ccc(-c2c(C)c(C#N)c(N)c(C#N)c2SC)c(OC)c1", "Readout label": "inhibition", "Readout value": "50%"}
{"Structure": "CSc1c(C)c(-c2ccccc2)c(C#N)c(N)c1C#N", "Readout label": "inhibition", "Readout value": "45%"}
{"Structure": "Cc1c(-c2ccccc2)c(C#N)c(N)c(C#N)c1N1CCCCC1", "Readout label": "inhibition", "Readout value": "4.7%"}
